Ref: ChEMBL document CHEMBL1201862

Each entry below lists one item and its recorded IC50 value.
- system name: Carboxy-terminal domain RNA polymerase II polypeptide A small phosphatase 1 (Homo sapiens, UniProt Q9GZU7)
- Sequence (Q9GZU7 whole entry): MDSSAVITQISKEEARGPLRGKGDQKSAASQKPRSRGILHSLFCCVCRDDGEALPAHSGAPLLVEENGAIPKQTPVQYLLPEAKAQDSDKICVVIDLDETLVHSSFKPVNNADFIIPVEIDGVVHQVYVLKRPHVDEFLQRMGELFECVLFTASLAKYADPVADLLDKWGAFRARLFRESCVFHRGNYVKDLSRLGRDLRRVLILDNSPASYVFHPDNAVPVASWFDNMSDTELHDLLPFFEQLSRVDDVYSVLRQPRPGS
- test details: inhibitors of CTDSP1, concentration-response testing, biochemical assay, absorbance-based, actives from ultra-high-throughput screening (AID 540297)
- Assay type: functional
The source made the active and inactive calls.
measured attribute: IC50

>>> result("C=CCc1cc(/C=C/c2nc(O)c([N+](=O)[O-])c(O)n2)cc(OC)c1O")
"19.3 µM (active)"
>>> result("CCn1c(C)cc(C)[n+]1-c1ccccc1")
"13.2 µM (active)"
>>> result("O=C(CCN1C(=O)/C(=C/c2ccc(F)cc2)SC1=S)Nc1cc([N+](=O)[O-])ccc1O")
"7.68 µM (active)"
>>> result("CC(=O)c1ccc(NC(=O)CSc2ccsc2[N+](=O)[O-])cc1")
"3.83 µM (active)"
>>> result("N#C/C(=C/c1ccc(-c2ccc(C(=O)O)c(Cl)c2)o1)C(=O)NCC1CCCO1 (stereo not given)")
"33.2 µM (active)"
>>> result("NS(=O)(=O)c1ccc(CCNC(=O)CCS(=O)(=O)c2ccc(Br)cc2)cc1")
"4.17 µM (active)"
>>> result("COC(=O)COc1ccc2oc(=O)cc(-c3cc4cccc(OC)c4o3)c2c1")
"9.43 µM (active)"
>>> result("CC(=O)c1cccc(NC(=O)COc2cc3oc(=O)c(CC(C)O)c(C)c3cc2Cl)c1 (stereo not given)")
"12.5 µM (active)"
>>> result("CCOC(=O)c1ccc2c(c1)[n+](CC)c(/C=C/N(C)c1ccccc1)n2CC")
"4.04 µM (active)"
>>> result("Fc1ccccc1Sc1ccccc1CNC1=NCCN1")
"4.12 µM (active)"

---

- test details: Vero E6 cell cytotoxicity, dose response, cytotoxicity control for non-replicating M. tuberculosis project, secondary assay (AID 492998)
- Format: functional, VeroE6
- conditions: Mycobacterium tuberculosis, Vero C1008
Activity calls are given as the source filed them.
measured attribute: CC50

>>> result("NCCOc1ccc(C23CC4CC(CC(C4)C2)C3)cc1")
"> 20 µM (active)"
>>> result("Cc1cc(C)n2[nH]c(=O)c(N=Nc3cccc(Cl)c3)c2n1")
"> 20 µM (active)"
>>> result("Oc1c2c(nc3c(-c4ccc(Cl)cc4)cnn13)CCC2")
"10.7 µM (active)"
>>> result("CCc1ccc(OCCNc2cc(N3CCNC(C)C3)ccc2[N+](=O)[O-])cc1 (stereo unspecified)")
"13.9 µM (active)"
>>> result("COc1ccc(C(=O)C(CN2CCCC2)c2ccccc2)cc1 (stereo unspecified)")
"11.6 µM (active)"
>>> result("Cc1cccc(-c2cc3nc(C)c(C)c(NCCCn4ccnc4)n3n2)c1")
"> 20 µM (active)"
